Measured values drawn from ChEMBL document CHEMBL1145972 for this set.

assay: Cmax in the brain of male wistar rats; format: ADME, organism-based; settings: rat
ATTRIBUTE_MEASURED: Cmax (µM)
Note: unit µM is implicit; provide only the numeric part.

Indicate the recorded Cmax value for this molecule: CC(C)(C)OCCOc1ccc(-c2nc(-c3cccc(C#N)c3)c[nH]2)cn1
8.55
